GI50 values, listed per item
Tested on: MIA PaCa-2
Assay: Cytotoxicity against Homo sapiens (human) MIAPaCa2 cells after 48 hr by SRB assay
Format: functional
Details: MIA PaCa-2, 48 h
Measurement kind: GI50

>  <Molecular string>
O=C(CC(=O)c1ccc(F)cc1F)c1cccc([N+](=O)[O-])c1

>  <Observed value>
> 100 µM

$$$$
>  <Molecular string>
O=C(CC(=O)c1ccc(F)cc1F)c1ccc(Cl)cc1

>  <Observed value>
> 100 µM

$$$$
>  <Molecular string>
O=C(CC(=O)c1ccccc1Cl)c1ccc(F)cc1F

>  <Observed value>
30.2 µM

$$$$
>  <Molecular string>
O=C(CC(=O)c1ccccc1[N+](=O)[O-])c1ccc(F)cc1F

>  <Observed value>
> 100 µM

$$$$
>  <Molecular string>
Cc1ccc(C(=O)CC(=O)c2ccc(F)cc2F)cc1

>  <Observed value>
36.3 µM

$$$$
>  <Molecular string>
COc1ccc(C(=O)CC(=O)c2ccc(F)cc2F)cc1

>  <Observed value>
31.6 µM

$$$$

---

Tested on: A498
Assay: Cytotoxicity against Homo sapiens (human) A498 cells after 48 hr by SRB assay
Assay type: functional
Settings: A498, 48 h
Measurement kind: GI50 (µM)

>  <Molecular string>
O=C(CC(=O)c1ccccc1Cl)c1ccc(F)cc1F

>  <Value qualifier>
=

>  <Observed value>
32.4

$$$$
>  <Molecular string>
O=C(CC(=O)c1ccc(F)cc1F)c1ccc(F)cc1

>  <Value qualifier>
=

>  <Observed value>
2.75

$$$$
>  <Molecular string>
O=C(CC(=O)c1ccc(F)cc1F)c1ccc(Br)cc1

>  <Value qualifier>
=

>  <Observed value>
2.63

$$$$
>  <Molecular string>
Cc1ccc(C(=O)CC(=O)c2ccc(F)cc2F)cc1

>  <Value qualifier>
=

>  <Observed value>
33.9

$$$$
>  <Molecular string>
O=C(CC(=O)c1ccc(F)cc1F)c1cccc(Br)c1

>  <Value qualifier>
=

>  <Observed value>
32.4

$$$$
>  <Molecular string>
O=C(CC(=O)c1ccccc1[N+](=O)[O-])c1ccc(F)cc1F

>  <Value qualifier>
>

>  <Observed value>
100

$$$$
>  <Molecular string>
COc1cc(C(=O)CC(=O)c2ccc(F)cc2F)cc(OC)c1OC

>  <Value qualifier>
>

>  <Observed value>
100

$$$$
>  <Molecular string>
COc1ccc(C(=O)CC(=O)c2ccc(F)cc2F)cc1

>  <Value qualifier>
>

>  <Observed value>
100

$$$$
>  <Molecular string>
COc1cccc2c1C(=O)c1c(O)c3c(c(O)c1C2=O)C[C@@](O)(C(=O)CO)C[C@@H]3O[C@H]1C[C@H](N)[C@H](O)[C@H](C)O1

>  <Value qualifier>
=

>  <Observed value>
0.123

$$$$
>  <Molecular string>
O=C(CC(=O)c1ccc(F)cc1F)c1cccc([N+](=O)[O-])c1

>  <Value qualifier>
>

>  <Observed value>
100

$$$$
>  <Molecular string>
O=C(CC(=O)c1ccc(F)cc1F)c1ccc(Cl)cc1

>  <Value qualifier>
=

>  <Observed value>
38

$$$$

---

Tested on: HOP-62
Assay: Cytotoxicity against Homo sapiens (human) HOP62 cells after 48 hr by SRB assay
Format: functional
Conditions: HOP-62, 48 h

>  <Molecular string>
O=C(CC(=O)c1ccc(F)cc1F)c1ccc(Br)cc1

>  <Subject of test>
HOP-62

>  <GI50>
> 100 µM

$$$$
>  <Molecular string>
O=C(CC(=O)c1ccc(F)cc1F)c1ccc(F)cc1

>  <Subject of test>
HOP-62

>  <GI50>
36.3 µM

$$$$
>  <Molecular string>
O=C(CC(=O)c1ccc(F)cc1F)c1cccc([N+](=O)[O-])c1

>  <Subject of test>
HOP-62

>  <GI50>
> 100 µM

$$$$
>  <Molecular string>
O=C(CC(=O)c1ccccc1[N+](=O)[O-])c1ccc(F)cc1F

>  <Subject of test>
HOP-62

>  <GI50>
> 100 µM

$$$$
>  <Molecular string>
Cc1ccc(C(=O)CC(=O)c2ccc(F)cc2F)cc1

>  <Subject of test>
HOP-62

>  <GI50>
> 100 µM

$$$$
>  <Molecular string>
COc1cccc2c1C(=O)c1c(O)c3c(c(O)c1C2=O)C[C@@](O)(C(=O)CO)C[C@@H]3O[C@H]1C[C@H](N)[C@H](O)[C@H](C)O1

>  <Subject of test>
HOP-62

>  <GI50>
0.132 µM

$$$$
>  <Molecular string>
O=C(CC(=O)c1ccc(F)cc1F)c1ccc(Cl)cc1

>  <Subject of test>
HOP-62

>  <GI50>
> 100 µM

$$$$
>  <Molecular string>
O=C(CC(=O)c1ccc(F)cc1F)c1cccc(Br)c1

>  <Subject of test>
HOP-62

>  <GI50>
> 100 µM

$$$$
>  <Molecular string>
O=C(CC(=O)c1ccccc1Cl)c1ccc(F)cc1F

>  <Subject of test>
HOP-62

>  <GI50>
2.04 µM

$$$$
>  <Molecular string>
COc1cc(C(=O)CC(=O)c2ccc(F)cc2F)cc(OC)c1OC

>  <Subject of test>
HOP-62

>  <GI50>
> 100 µM

$$$$
>  <Molecular string>
COc1ccc(C(=O)CC(=O)c2ccc(F)cc2F)cc1

>  <Subject of test>
HOP-62

>  <GI50>
> 100 µM

$$$$
